System: Wickerhamomyces anomalus
Assay: Antimicrobial activity against Candida pelliculosa by broth microdilution method
Type: functional
Conditions: Hansenula anomala
*1 amine or outer side, *2 acyl side, *3 side chain or, on linkers, in order; H or OH if unused. Where a SMILES comes first, the peptide text is derived from it. Bridges are numbered along the chain shown (N, C = ends). [ ]: non-standard residue; d: D form. The star is where a group is joined. hTyr(3S-OH,4S-OH,3'-OSO3H) = N[C@H](C(=O)O)[C@H](O)[C@@H](O)c1ccc(O)c(OS(=O)(=O)O)c1; pTerphenylCO(4''-OnC5H11) = CCCCCOc1ccc(-c2ccc(-c3ccc(C(=O)*)cc3)cc2)cc1; Orn(4R-OH,5R-OH) = O=C([C@H](C[C@@H](O)[C@@H](O)N[*:3])N[*:1])[*:2]; hTyr(3S-OH,4S-OH) = N[C@H](C(=O)O)[C@H](O)[C@@H](O)c1ccc(O)cc1; Pro(3S-OH,4S-Me) = C[C@H]1CN[C@H](C(=O)O)[C@H]1O; X1 = CCCCCOc1ccc(-c2cc(-c3ccc(C(=O)*)cc3)no2)cc1; Gln(3R-OH) = NC(=O)C[C@@H](O)[C@H](N)C(=O)O; Hyp = O=C(O)[C@@H]1C[C@@H](O)CN1
MEASURED QUANTITY: MIC50 (µg/mL)
The figure you give is taken to be in µg/mL; do not add the unit.

Quickly give me recorded MIC50 for CCCCCOc1ccc(-c2ccc(-c3ccc(C(=O)N[C@H]4C[C@@H](O)[C@@H](O)NC(=O)[C@@H]5[C@@H](O)[C@@H](C)CN5C(=O)[C@H]([C@@H](C)O)NC(=O)[C@H]([C@H](O)[C@@H](O)c5ccc(O)cc5)NC(=O)[C@@H]5C[C@@H](O)CN5C(=O)[C@H]([C@@H](C)O)NC4=O)cc3)cc2)cc1 [ANIDULAFUNGIN] ({pTerphenylCO(4''-OnC5H11)}-[Orn(4R-OH,5R-OH)]T[Hyp][hTyr(3S-OH,4S-OH)]T[Pro(3S-OH,4S-Me)]; lactam 1-C) 0.06

Quote MIC50 reported for "C[C@@H](c1ncncc1F)[C@](O)(Cn1cncn1)c1ccc(F)cc1F" please. 0.12

Please list MIC50 recorded for the molecule "OC(Cn1cncn1)(Cn1cncn1)c1ccc(F)cc1F" 8

Indicate the recorded MIC50 value for this molecule: "Nc1nc(=O)[nH]cc1F" 0.25

Answer with the recorded MIC50 for the molecule listed here: "CC[C@H](C)C[C@H](C)CCCCCCCCC(=O)N[C@H]1C[C@@H](O)[C@@H](NCCN)NC(=O)[C@@H]2[C@@H](O)CCN2C(=O)[C@H]([C@H](O)CCN)NC(=O)[C@H]([C@H](O)[C@@H](O)c2ccc(O)cc2)NC(=O)[C@@H]2C[C@@H](O)CN2C(=O)[C@H]([C@@H](C)O)NC1=O" 0.06

// fetch MIC50 given entry CCCCCOc1ccc(-c2cc(-c3ccc(C(=O)N[C@H]4C[C@@H](O)[C@@H](O)NC(=O)[C@@H]5[C@@H](O)[C@@H](C)CN5C(=O)[C@H]([C@H](O)CC(N)=O)NC(=O)[C@H]([C@H](O)[C@@H](O)c5ccc(O)c(OS(=O)(=O)O)c5)NC(=O)[C@@H]5C[C@@H](O)CN5C(=O)[C@H]([C@@H](C)O)NC4=O)cc3)no2)cc1 [MICAFUNGIN] (X1-[Orn(4R-OH,5R-OH)]T[Hyp][hTyr(3S-OH,4S-OH,3'-OSO3H)][Gln(3R-OH)][Pro(3S-OH,4S-Me)]; lactam 1-C) 0.03

Query MIC50 for "C[C@@H]1[C@H](O)[C@@H](C)/C=C/C=C/C=C/C=C/C=C/C=C/C=C/[C@H](O[C@@H]2O[C@H](C)[C@@H](O)[C@H](N)[C@@H]2O)C[C@@H]2O[C@](O)(C[C@@H](O)C[C@@H](O)[C@H](O)CC[C@@H](O)C[C@@H](O)CC(=O)O[C@H]1C)C[C@H](O)[C@H]2C(=O)O" 0.12

Return reported MIC50. Input molecule: "CC[C@@H]([C@H](C)O)n1ncn(-c2ccc(N3CCN(c4ccc(OC[C@@H]5CO[C@@](Cn6cncn6)(c6ccc(F)cc6F)C5)cc4)CC3)cc2)c1=O" 0.03

Determine its reported MIC50: CCC(C)n1ncn(-c2ccc(N3CCN(c4ccc(OCC5COC(Cn6cncn6)(c6ccc(Cl)cc6Cl)O5)cc4)CC3)cc2)c1=O (centres undefined) 0.12
